# Tested on: HEK293 cells overexpressing APOL1 G2
# PROTOCOL NOTES: APOL1 G2 HEK293 cell rescue assay (reversal of cell death caused by overexpression of APOL1)
# Type: cell-based
# COND: Homo sapiens, HEK293, HEK293 overexpressing APOL1 G2; geometric mean of at least 2 assay runs; † = single assay run
Rule: measured EC50 below 100 nM gets 1 (yes); anything equal to or greater than 100 nM gets 0 (no).

> print(dat)
                                    compound  category
 1  CS(=O)(=O)c1c(F)cc(OCCN2CCC3(CC2)C(=O)Nc2ccc(C#N)cc23)cc1F    0 (no)
 2  CC(C)(C(N)=O)c1ccc(OCCN2CCC3(CC2)C(=O)Nc2ccc(C#N)cc23)cc1    0 (no)
 3  N#Cc1ccc2c(c1)C1(CCN(CCOc3ccc4c(c3)CCNS4(=O)=O)CC1)C(=O)N2    0 (no)
 4  C[C@]1(O)C[C@@H](c2nc3cc(OCCN4CCC5(CC4)C(=O)Nc4ccc(Cl)cc45)cc(C(F)(F)F)c3[nH]2)C1   1 (yes)
 5  CS(=O)(=O)C1(c2ncc(OCCN3CCC4(CC3)C(=O)Nc3ccc(Cl)cc34)cn2)CC1   1 (yes)
 6  O=C1Nc2ccccc2C12CCN(CCOc1ccc(S(=O)(=O)C(F)F)cc1)CC2    0 (no)
 7  O=C1Nc2ccc(Cl)cc2C12CCN(CCOc1ccc(S(=O)(=O)C(F)F)cc1)CC2   1 (yes)
 8  CN1C(=O)C2(CCN(CCOc3ccc(S(C)(=O)=O)cc3)CC2)c2ccccc21    0 (no)
 9  CS(=O)(=O)N1CCC(c2ccc(OCCN3CCC4(CC3)C(=O)Nc3ccc(Cl)cc34)cc2)CC1   1 (yes)
10  CN1C(=O)C2(CCN(CCOc3cc(F)c(C4(S(C)(=O)=O)COC4)c(F)c3)CC2)c2cc(C#N)ccc21   1 (yes)
11  CS(=O)(=O)CCCn1ncc2cc(OCCN3CCC4(CC3)C(=O)Nc3ccc(Cl)cc34)ccc21    0 (no)
12  CC(c1c(F)cc(OCCN2CCC3(CC2)C(=O)Nc2ccc(Cl)cc23)cc1F)S(C)(=O)=O (single isomer, unassigned) [Compound 142]   1 (yes)
13  CS(=O)(=O)N1Cc2ccc(OCCN3CCC4(CC3)C(=O)Nc3ccc(Cl)cc34)cc2C1   1 (yes)
